# assay-notes: Relative bioavailability of crystalline and salt forms after single oral dose in male mice (Example 6)
# Format: in vivo
# study-conditions: male C57bl/6 mice, single oral dose adjusted to 10 mg/kg free IM-250, suspension in 0.5% HPMC in PBS, blood
Structures can show the parent of a compound that is named as a salt.
assay-metric: AUC0-24 h (ng·h/mL)
# output: bare number, implied unit ng·h/mL

Need AUC0-24 h, item Cc1nc(N(C)C(=O)Cc2ccc(-c3cc(F)ccc3F)cc2)sc1[S@@](C)(=N)=O [IM-250 Napadisylate]
48241

// next record Cc1nc(N(C)C(=O)Cc2ccc(-c3cc(F)ccc3F)cc2)sc1[S@@](C)(=N)=O [IM-250 Free base Form I]
7683

// next record Cc1nc(N(C)C(=O)Cc2ccc(-c3cc(F)ccc3F)cc2)sc1[S@@](C)(=N)=O [suspended IM-250 from DMSO]
66406

// next record Cc1nc(N(C)C(=O)Cc2ccc(-c3cc(F)ccc3F)cc2)sc1[S@@](C)(=N)=O [IM-250 HCl salt]
68289

The reported numbers originate from patent US20250115565A1.
